The entries below are paired with their reported remaining at 0.5 h.
# TEST_DETAILS: Metabolic stability in rat liver microsomes after 30 mins
# Format: ADME, Microsome
# EXPERIMENTAL_PARAMETERS: read-out: Stability
Express the reported value numerically, then name its unit.

[ask] // remaining at 0.5 h lookup, key: CC12CCCC(/C=C/C(=O)NS(=O)(=O)c3cc(Cl)c(Cl)s3)=C1N(Cc1ccc(F)c(F)c1)C(=O)C2 (stereo not given)
[reply] 22%

[ask] // remaining at 0.5 h lookup, key: CC12CCCC(/C=C/C(=O)NS(=O)(=O)c3cc(F)c(F)cc3F)=C1N(Cc1cccc(Cl)c1Cl)C(=O)C2 (stereo not given)
[reply] 50%

[ask] // remaining at 0.5 h lookup, key: COc1cccc(CN2C(=O)CC3(C)CCCC(/C=C/C(=O)NS(=O)(=O)c4cc(F)c(F)cc4F)=C23)c1 (stereo not given)
[reply] 84%

[ask] // remaining at 0.5 h lookup, key: CC12CCCC(/C=C/C(=O)NS(=O)(=O)c3cc(Cl)cc(Cl)c3)=C1N(Cc1ccc(Cl)cc1Cl)C(=O)C2 (stereo not given)
[reply] 62%

[ask] // remaining at 0.5 h lookup, key: CC12CCCC(/C=C/C(=O)NS(=O)(=O)c3cc(Cl)c(Cl)s3)=C1N(Cc1ccc3ccccc3c1)C(=O)C2 (stereo not given)
[reply] 54%

[ask] // remaining at 0.5 h lookup, key: CC12CCCC(/C=C/C(=O)NS(=O)(=O)c3cc(F)c(F)cc3F)=C1N(Cc1ccc(Cl)cc1Cl)C(=O)C2 (stereo not given)
[reply] 37%

[ask] // remaining at 0.5 h lookup, key: CC12CCCC(/C=C/C(=O)NS(=O)(=O)c3ccc(F)c(F)c3)=C1N(Cc1ccc(F)c(F)c1)C(=O)C2 (stereo not given)
[reply] 82%

[ask] // remaining at 0.5 h lookup, key: CC12CCCC(/C=C/C(=O)NS(=O)(=O)c3cc(F)c(F)cc3F)=C1N(Cc1ccc(F)c(F)c1)C(=O)C2 (stereo not given)
[reply] 89%

[ask] // remaining at 0.5 h lookup, key: CC12CCCC(/C=C/C(=O)NS(=O)(=O)c3ccc(Cl)s3)=C1N(Cc1ccc(Cl)cc1Cl)C(=O)C2 (stereo not given)
[reply] 68%

[ask] // remaining at 0.5 h lookup, key: COc1cccc(CN2C(=O)CC3(C)CCCC(/C=C/C(=O)NS(=O)(=O)c4cc(Cl)c(Cl)s4)=C23)c1 (stereo not given)
[reply] 64%

====

Target protein (sequence): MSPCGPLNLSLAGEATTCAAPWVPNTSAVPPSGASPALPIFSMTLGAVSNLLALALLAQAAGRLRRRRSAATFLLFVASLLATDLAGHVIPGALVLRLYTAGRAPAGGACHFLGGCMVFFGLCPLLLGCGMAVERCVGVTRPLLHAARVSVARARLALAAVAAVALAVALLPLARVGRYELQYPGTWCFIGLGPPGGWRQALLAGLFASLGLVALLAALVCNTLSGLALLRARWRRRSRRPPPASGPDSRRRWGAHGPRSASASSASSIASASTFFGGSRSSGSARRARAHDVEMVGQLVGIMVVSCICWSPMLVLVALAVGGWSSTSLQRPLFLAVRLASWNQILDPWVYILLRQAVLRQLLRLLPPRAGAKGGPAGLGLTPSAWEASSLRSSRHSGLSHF
PROPERTY: pIC50
Remember the convention: pIC50 equals -log10 of concentration in molar.

[ask] // pIC50 lookup, key: COc1cccc(CN2C(=O)CC3(C)CCCC(/C=C/C(=O)NS(=O)(=O)c4ccc(F)c(F)c4)=C23)c1 (configuration not stated)
[reply] 5.85

[ask] // pIC50 lookup, key: CC12CCCC(/C=C/C(=O)NS(=O)(=O)c3cc(F)c(F)cc3F)=C1N(Cc1ccc(Cl)cc1Cl)C(=O)C2 (configuration not stated)
[reply] 4.94

====

# SYSTEM_NAME: Prostaglandin E2 receptor EP3 subtype (Homo sapiens) (UniProt P43115)
# TEST_DETAILS: Ratio of IC50 for human EP3 receptor in presence of 10% human serum to IC50 for human EP3 receptor in buffer
Mark fulfilled for fold change (FC) under 30, not fulfilled if at or over.

[ask] Determine whether this molecule shows fold change (FC) lower than 30 (ties excluded): CC12CCCC(/C=C/C(=O)NS(=O)(=O)c3cc(F)cc(F)c3)=C1N(Cc1ccc(F)c(F)c1)C(=O)C2 (stereo not drawn)
[reply] not fulfilled

====

# SYSTEM_NAME: Prostaglandin E2 receptor EP3 subtype (Homo sapiens, UniProt P43115)
# Sequence (P43115 whole entry): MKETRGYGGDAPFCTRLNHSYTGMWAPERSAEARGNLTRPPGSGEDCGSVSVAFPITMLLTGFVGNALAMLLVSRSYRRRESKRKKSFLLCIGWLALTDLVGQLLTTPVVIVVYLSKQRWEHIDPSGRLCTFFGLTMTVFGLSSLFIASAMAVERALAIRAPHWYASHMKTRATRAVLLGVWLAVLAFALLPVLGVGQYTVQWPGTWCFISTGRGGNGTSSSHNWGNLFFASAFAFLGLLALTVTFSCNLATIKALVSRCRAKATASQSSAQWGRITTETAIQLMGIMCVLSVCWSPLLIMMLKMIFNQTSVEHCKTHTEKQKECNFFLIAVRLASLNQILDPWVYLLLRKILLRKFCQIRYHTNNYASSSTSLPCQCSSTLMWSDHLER
# TEST_DETAILS: Antagonist activity at human EP3 receptor expressed in CHO-K1 cells assessed as reversal of inhibition of forskolin-induced cAMP production
# Format: functional, cell-based
The entries below are paired with their reported pIC50.
Remember the convention: pIC50 equals -log10 of concentration in molar.

MOLECULE	NUMBER
CC12CCCC(/C=C/C(=O)NS(=O)(=O)c3cc(Cl)c(Cl)s3)=C1N(Cc1ccc(F)c(F)c1)C(=O)C2 (centres undefined)	8.28
CC12CCCC(/C=C/C(=O)NS(=O)(=O)c3cc(F)c(F)cc3F)=C1N(Cc1cccc(Cl)c1Cl)C(=O)C2 (centres undefined)	8.35
CC12CCCC(/C=C/C(=O)NS(=O)(=O)c3cc(Cl)cc(Cl)c3)=C1N(Cc1ccc(F)c(F)c1)C(=O)C2 (centres undefined)	8.49

// below: pIC50 requested for another molecule
[ask] // pIC50 lookup, key: CC12CCCC(/C=C/C(=O)NS(=O)(=O)c3cc(F)c(F)cc3F)=C1N(Cc1ccc(F)c(F)c1)C(=O)C2 (centres undefined)
[reply] 8.46

====

# SYSTEM_NAME: Prostaglandin E2 receptor EP3 subtype (Homo sapiens)
# TEST_DETAILS: Displacement of [3H]PGE2 from human EP3 receptor
PROPERTY: IC50 (nM)
Express your answer in nM, writing the number without its unit.

Known results for molecules:
MOLECULE	IC50 / nM
CC12CCCC(/C=C/C(=O)NS(=O)(=O)c3cc(F)cc(F)c3)=C1N(Cc1ccc(F)cc1)C(=O)C2 (centres undefined)	84.1
CC12CCCC(/C=C/C(=O)NS(=O)(=O)c3cc(F)cc(F)c3)=C1N(Cc1cccc(Cl)c1Cl)C(=O)C2 (centres undefined)	3.8

[ask] // IC50 lookup, key: C[C@]12CCC[C@@H](CCC(=O)NS(=O)(=O)c3cc(F)c(F)cc3F)[C@H]1N(Cc1ccc(F)c(F)c1)C(=O)C2
[reply] 557

[ask] // IC50 lookup, key: CC12CCCC(CCC(=O)NS(=O)(=O)c3cc(F)c(F)cc3F)=C1N(Cc1ccc(F)c(F)c1)C(=O)C2 (centres undefined)
[reply] 1.8

====

# SYSTEM_NAME: Prostaglandin E2 receptor EP3 subtype (Homo sapiens)
# TEST_DETAILS: Displacement of [3H]PGE2 from human EP3 receptor
PROPERTY: pIC50
Remember the convention: pIC50 equals -log10 of concentration in molar.

Known results for compounds:
COMPOUND	NUMBER
CC12CCCC(/C=C/C(=O)NS(=O)(=O)c3ccc(F)c(F)c3)=C1N(Cc1ccc(F)c(F)c1)C(=O)C2 (centres undefined)	8.03
CC12CCCC(/C=C/C(=O)NS(=O)(=O)c3ccc(F)cc3)=C1N(Cc1ccc(Cl)cc1Cl)C(=O)C2 (centres undefined)	7.82
CC12CCCC(/C=C/C(=O)NS(=O)(=O)c3ccc(F)c(F)c3)=C1N(Cc1cccc(Cl)c1Cl)C(=O)C2 (centres undefined)	8.47

[ask] What pIC50 appears in the records for this compound with Prostaglandin E2 receptor EP3 subtype (Homo sapiens)? CC12CCCC(/C=C/C(=O)NS(=O)(=O)c3ccc(Cl)s3)=C1N(Cc1ccc(Cl)cc1Cl)C(=O)C2 (centres undefined)
[reply] 7.87

====

# TEST_DETAILS: Aqueous solubility in 50 mM PSB buffer at pH 7.4 by HPLC analysis
# Type: physicochemical
PROPERTY: solubility

Known results for compounds:
COMPOUND	solubility
CC12CCCC(/C=C/C(=O)NS(=O)(=O)c3cc(F)c(F)cc3F)=C1N(Cc1ccc(F)c(F)c1)C(=O)C2 (stereo not drawn)	> 3000 µg/mL
Cc1cn(Cc2ccc(F)c(F)c2)c2c(/C=C/C(=O)NS(=O)(=O)c3cc(F)c(F)cc3F)cc(F)cc12	< 40 µg/mL

// below: solubility requested for another compound
[ask] // solubility lookup, key: CC1C(=O)N(Cc2ccc(F)c(F)c2)c2c(/C=C/C(=O)NS(=O)(=O)c3cc(F)c(F)cc3F)cccc21 (stereo not drawn)
[reply] 1580 µg/mL
